Origin of measurements: ChEMBL document CHEMBL3120136

Below, each entry is listed with its recorded logD.
EXPERIMENTAL_PROTOCOL: Lipophilicity, log D of the compound
Type: physicochemical
SETTINGS: octanol/water

LINE_NOTATION: CC(C)(C)OC(=O)N[C@H]1CCCCC/C=C\[C@@H]2C[C@@]2(C(=O)NS(=O)(=O)C2CC2)NC(=O)[C@@H]2C[C@@H](OC(=O)N3Cc4cccc(F)c4C3)CN2C1=O
logD: 2.1
//
LINE_NOTATION: CC(C)(C)OC(=O)N[C@H]1CCCCC/C=C\[C@@H]2C[C@@]2(C(=O)NS(=O)(=O)C2CC2)NC(=O)[C@@H]2C[C@@H](OC(=O)N3Cc4ccccc4C3)CN2C1=O
logD: 2.4
//
LINE_NOTATION: CC(C)(C)OC(=O)N[C@H]1CCCCC/C=C\[C@@H]2C[C@@]2(C(=O)NS(=O)(=O)C2CC2)NC(=O)[C@@H]2C[C@@H](OC(=O)N3CCc4ccccc4C3)CN2C1=O
logD: 2.2
//
LINE_NOTATION: CN(C)S(=O)(=O)NC(=O)[C@@]12C[C@H]1/C=C\CCCCC[C@H](NC(=O)OC(C)(C)C)C(=O)N1C[C@H](OC(=O)N3Cc4ccccc4C3)C[C@H]1C(=O)N2
logD: 2.5
